Assay: Inhibition of hepatitis B virus replication in the HepAD38 cell line.
Type: functional, cell-based
Settings: Homo sapiens
# Lookup of reported EC50 keyed by entry
propertyName: EC50

[[record]]
samplesmiles = "Cc1ccc(/C(Br)=C(\\NC(=O)c2ccccc2)C(=O)N2CCCCC2)cc1"
valueobserved = "2800 nM"

[[record]]
samplesmiles = "COc1ccccc1/C(Br)=C(\\NC(=O)c1ccc([N+](=O)[O-])cc1)C(=O)N1CCCCC1"
valueobserved = "130 nM"

[[record]]
samplesmiles = "O=C(N/C(C(=O)N1CCCCC1)=C(/Cl)c1ccccc1)c1ccc(F)cc1"
valueobserved = "1300 nM"

[[record]]
samplesmiles = "COc1ccc(/C(Br)=C(\\NC(=O)c2ccccc2)C(=O)N2CCCCC2)cc1"
valueobserved = "13000 nM"

[[record]]
samplesmiles = "COc1ccc(/C(Cl)=C(\\NC(=O)c2ccccc2)C(=O)N2CCCCC2)cc1"
valueobserved = "> 75000 nM"

[[record]]
samplesmiles = "O=C(N/C(C(=O)N1CCCCC1)=C(/Br)c1ccc(Cl)cc1)c1ccccc1"
valueobserved = "11000 nM"


---

Assay: Reduction of viable cell numbers by 50% was evaluated by HepAD38 cellular assay
Format: ADME, cell-based
Conditions: human, HepAD38 cells; read-out: TC50 (the source's name)
propertyName: CC50

[[record]]
samplesmiles = "O=C(N/C(C(=O)N1CCCCC1)=C(/Cl)c1ccc(F)cc1)c1ccccc1"
propertyname = "CC50"
valueobserved = "> 75 µM"

[[record]]
samplesmiles = "Cc1ccccc1/C(Br)=C(\\NC(=O)c1ccc([N+](=O)[O-])cc1)C(=O)N1CCCCC1"
propertyname = "CC50"
valueobserved = "> 63 µM"

[[record]]
samplesmiles = "O=C(N/C(C(=O)N1CCCCC1)=C(/Br)c1ccc(F)cc1)c1ccc([N+](=O)[O-])cc1"
propertyname = "CC50"
valueobserved = "> 63 µM"

[[record]]
samplesmiles = "Cc1ccccc1/C(Br)=C(\\NC(=O)c1ccccc1)C(=O)N1CCCCC1"
propertyname = "CC50"
valueobserved = "> 70 µM"

[[record]]
samplesmiles = "O=C(N/C(C(=O)N1CCCCC1)=C(/Br)c1ccccc1F)c1ccccc1"
propertyname = "CC50"
valueobserved = "70 µM"

[[record]]
samplesmiles = "O=C(N/C(C(=O)N1CCCCC1)=C(/Cl)c1ccc(Cl)cc1)c1ccccc1"
propertyname = "CC50"
valueobserved = "45 µM"

[[record]]
samplesmiles = "COc1ccc(C(=O)N/C(C(=O)N2CCCCC2)=C(/Br)c2ccccc2)cc1"
propertyname = "CC50"
valueobserved = "> 67 µM"

[[record]]
samplesmiles = "O=C(N/C(C(=O)N1CCCCC1)=C(/Br)c1ccccc1)c1ccc(Br)cc1"
propertyname = "CC50"
valueobserved = "> 61 µM"

[[record]]
samplesmiles = "COc1ccc(/C(Br)=C(\\NC(=O)c2ccccc2)C(=O)N2CCCCC2)cc1"
propertyname = "CC50"
valueobserved = "> 67 µM"

[[record]]
samplesmiles = "COc1ccc(/C(Cl)=C(\\NC(=O)c2ccccc2)C(=O)N2CCCCC2)cc1"
propertyname = "CC50"
valueobserved = "> 75 µM"

[[record]]
samplesmiles = "O=C(N/C(C(=O)N1CCCCC1)=C(/Br)c1ccccc1)c1ccc([N+](=O)[O-])cc1"
propertyname = "CC50"
valueobserved = "> 65 µM"

[[record]]
samplesmiles = "Cc1ccc(/C(Br)=C(\\NC(=O)c2ccccc2)C(=O)N2CCCCC2)cc1"
propertyname = "CC50"
valueobserved = "> 70 µM"

[[record]]
samplesmiles = "O=C(N/C(C(=O)N1CCCCC1)=C(/Br)c1ccc(Cl)cc1)c1ccccc1"
propertyname = "CC50"
valueobserved = "55 µM"

[[record]]
samplesmiles = "O=C(N/C(C(=O)N1CCCCC1)=C(/Br)c1ccccc1)c1ccccc1"
propertyname = "CC50"
valueobserved = "> 72 µM"

[[record]]
samplesmiles = "O=C(N/C(C(=O)N1CCCCC1)=C(/Cl)c1ccccc1)c1ccc(C(F)(F)F)cc1"
propertyname = "CC50"
valueobserved = "> 69 µM"

[[record]]
samplesmiles = "O=C(N/C(C(=O)N1CCCCC1)=C(/Cl)c1ccccc1)c1ccccc1"
propertyname = "CC50"
valueobserved = "> 81 µM"

[[record]]
samplesmiles = "O=C(N/C(C(=O)N1CCCCC1)=C(/Br)c1ccc(F)cc1)c1ccccc1"
propertyname = "CC50"
valueobserved = "> 70 µM"

[[record]]
samplesmiles = "O=C(N/C(C(=O)N1CCCCC1)=C(/Br)c1ccccc1)c1ccc(Cl)cc1"
propertyname = "CC50"
valueobserved = "> 67 µM"

[[record]]
samplesmiles = "COc1ccc(C(=O)N/C(C(=O)N2CCCCC2)=C(/Cl)c2ccccc2)cc1"
propertyname = "CC50"
valueobserved = "> 75 µM"

[[record]]
samplesmiles = "O=C(N/C(C(=O)N1CCCCC1)=C(/Br)c1ccccc1)c1ccc(F)cc1"
propertyname = "CC50"
valueobserved = "> 69 µM"


Data provenance: ChEMBL document CHEMBL1132834
